ASSAY_COMMENT: Organ/tissue residence times
Assay type: in vivo, human
TEST_CONTEXT: all patients, monoexponential fit
ENDPOINT: residence time, Muscle, Mean (h)
Answers are plain numbers, in h.

Look up residence time, Muscle, Mean of N=C(N)NCCC[C@@H]1NC(=O)[C@H](CCCCNC(=O)CCC(C(=O)O)N2CCN(CC(=O)O)CCN(CC(=O)O)CC2)NC(=O)[C@@H](Cc2ccccc2)NC(=O)[C@H](CC(=O)O)NC(=O)CNC1=O (stereo partly shown) [[^68Ga]NODAGA-RGD, metal not drawn] and report it.
0.246

----------
ASSAY_COMMENT: PET/CT biodistribution (%ID/l, SUV)
Format: in vivo, human
TEST_CONTEXT: human, blood, total radioactivity; 60 min p.i., patients, PET VOI; read-out: %ID/l, blood
ENDPOINT: tissue uptake dose at 1 h (%ID)
One number for each entry, in %ID.

Look up tissue uptake dose at 1 h of N=C(N)NCCC[C@@H]1NC(=O)[C@H](CCCCNC(=O)CCC(C(=O)O)N2CCN(CC(=O)O)CCN(CC(=O)O)CC2)NC(=O)[C@@H](Cc2ccccc2)NC(=O)[C@H](CC(=O)O)NC(=O)CNC1=O (stereo partly shown) [[^68Ga]NODAGA-RGD, metal not drawn] and report it.
0.56

All figures here come from paper PMC5007270.
